- Tested on: PfAP2-I AP2 domain 3 (GST-tagged)
- assay details: gcPBM binding intensity (ln(normalized median fluorescence intensity)); higher = stronger DNA binding
Whole data set: some 25,000 sequences, median “ln(normalized median fluorescence intensity)” near 7.9, cut for the highest 2% near 11. For the sample, the highest values were picked, then their nearest neighbours and some sequences at random.
quantity name: gcPBM binding intensity (ln)

- AATTTTTTATTCTTTGCATGTCATCATATATAATAT [TGCATGCA_site549]: 8.12
- CGAATAAATATATGTAGTACATGTTGTAGATAATTT [XGTACX_site1218]: 8.01
- TCTTTCAATATTAATGCATGTTAATAATAAATTTTA [TGCATGCA_site448]: 7.96

Values were extracted from the supplement of paper PMC11417369.
